Values from PubChem BioAssay (EPA / NIEHS)

assay: TOX21_p53_BLA_p4_viability: Viability Assessment in the Tox21 HCT-116 p53 Agonism Beta-lactamase Assay, Phase 4 (AID 2283597);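 note: hits lower the luminescence signal meaning cytotoxicity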
Inconclusive results are not listed. Activity calls are given as the source filed them. Rule for the calls: active = hit-call score of the fitted dose curve at least 0.9, where 1 is the maximum; inconclusive = response in the unintended direction; inactive = score below 0.9.
Pick from 1 (yes) = active, 0 (no) = inactive when you respond.

See these solved cases before continuing.
CN=C=S :: 0 (no)
CNC(=O)Oc1cccc2ccccc12 :: 0 (no)
CC(C)NC(=O)N1CC(=O)N(c2cc(Cl)cc(Cl)c2)C1=O :: 0 (no)
COCC(=O)N(c1c(C)cccc1C)C(C)C(=O)OC (centres undefined) :: 0 (no)

Asked: Assay result, entry CCOc1nc(F)cc2nc(S(=O)(=O)Nc3c(Cl)cccc3Cl)nn12 — outcome?
Given back: 0 (no)

Asked: Test call for this molecule, please: Clc1cccc(C(Cl)(Cl)Cl)n1
Given back: 0 (no)

Asked: Short answer needed: outcome of this test for CC(C)Oc1cccc(NC(=O)c2ccccc2C(F)(F)F)c1 ?
Given back: 0 (no)

Asked: Dear colleague, could you share the recorded outcome for CC1(C)CCC(=Cc2ccc(Cl)cc2)C1(O)Cn1cncn1 (centres undefined) when you have a moment?
Given back: 0 (no)

Asked: Short answer needed: outcome of this test for COP(=S)(OC)SCn1nnc2ccccc2c1=O ?
Given back: 0 (no)

Asked: Outcome? CCN(CC)C(=O)C(C)Oc1cccc2ccccc12 (centres undefined)
Given back: 0 (no)
